Value source: the supplement of paper PMC10307832

test system: H3255; assay: relative viability (nuclei count vs DMSO), 5 days (fraction); higher = more cells survive; conditions: first compound 0.253 µM
Returns: string. Value is satisfied if measured relative viability is below 0.8, and not satisfied if it is greater than or equal to it.

>  <molecule>
O=c1cc(-c2cccc3c2Sc2ccccc2S3)oc(N2CCOCC2)c1 + C[C@@H](Oc1cc(-c2cnn(C3CCNCC3)c2)cnc1N)c1c(Cl)ccc(F)c1Cl [Crizotinib] (partner 1 µM)

>  <assigned.label>
not satisfied

$$$$
>  <molecule>
O=c1cc(-c2cccc3c2Sc2ccccc2S3)oc(N2CCOCC2)c1 + Nc1nc2[nH]cc(CCc3ccc(C(=O)N[C@@H](CCC(=O)O)C(=O)O)cc3)c2c(=O)[nH]1 [Pemetrexed] (partner 0.2 µM)

>  <assigned.label>
satisfied

$$$$
>  <molecule>
O=c1cc(-c2cccc3c2Sc2ccccc2S3)oc(N2CCOCC2)c1 + CC(=O)Nc1cccc(-n2c(=O)n(C3CC3)c(=O)c3c(Nc4ccc(I)cc4F)n(C)c(=O)c(C)c32)c1 [Trametinib] (partner 0.02 µM)

>  <assigned.label>
satisfied

$$$$
>  <molecule>
O=c1cc(-c2cccc3c2Sc2ccccc2S3)oc(N2CCOCC2)c1 + C[C@]1(O)C[C@@H](c2nc(-c3ccc4ccc(-c5ccccc5)nc4c3)c3c(N)nccn32)C1 [Linsitinib] (partner 1 µM)

>  <assigned.label>
not satisfied

$$$$
>  <molecule>
COc1nc(C)cnc1NS(=O)(=O)c1cccnc1-c1ccc(-c2nnco2)cc1 [Zibotentan] + C[C@]1(O)C[C@@H](c2nc(-c3ccc4ccc(-c5ccccc5)nc4c3)c3c(N)nccn32)C1 [Linsitinib] (partner 1 µM)

>  <assigned.label>
not satisfied

$$$$
>  <molecule>
O=c1cc(-c2cccc3c2Sc2ccccc2S3)oc(N2CCOCC2)c1 + CC(C)C[C@H](NC(=O)[C@H](Cc1ccccc1)NC(=O)c1cnccn1)B(O)O [Bortezomib] (partner 0.002 µM)

>  <assigned.label>
not satisfied

$$$$
>  <molecule>
O=c1cc(-c2cccc3c2Sc2ccccc2S3)oc(N2CCOCC2)c1 + Nc1ncn([C@H]2C[C@H](O)[C@@H](CO)O2)c(=O)n1 [Decitabine] (partner 2 µM)

>  <assigned.label>
satisfied

$$$$
>  <molecule>
COc1nc(C)cnc1NS(=O)(=O)c1cccnc1-c1ccc(-c2nnco2)cc1 [Zibotentan] + N=C(N)NC(=N)NCCc1ccccc1 [Phenformin] (partner 250 µM)

>  <assigned.label>
satisfied

$$$$

* * *

test system: BEN; assay: relative viability (nuclei count vs DMSO), 5 days (fraction); higher = more cells survive; conditions: first compound 0.2 µM
reported.metric: relative viability

>  <compound>
COCC1(CO)C(=O)C2CCN1CC2 (stereo not drawn) [PRIMA-1MET] + C[C@]1(O)C[C@@H](c2nc(-c3ccc4ccc(-c5ccccc5)nc4c3)c3c(N)nccn32)C1 [Linsitinib] (partner 1 µM)

>  <observed.measurement>
1.04

$$$$
>  <compound>
COCC1(CO)C(=O)C2CCN1CC2 (stereo not drawn) [PRIMA-1MET] + COc1cccc2cc(-c3nc([C@H]4CC[C@H](C(=O)O)CC4)n4ncnc(N)c34)[nH]c12 [OSI-027] (partner 0.5 µM)

>  <observed.measurement>
0.283

$$$$
>  <compound>
COCC1(CO)C(=O)C2CCN1CC2 (stereo not drawn) [PRIMA-1MET] + N=C(N)NC(=N)NCCc1ccccc1 [Phenformin] (partner 250 µM)

>  <observed.measurement>
0.268

$$$$
